- System Name: full-length, N-terminal, 6His-tagged KSP (Homo sapiens)
- Construct: IC50 values for CW069 and 3 against full-length, N-terminal, 6His-tagged HSET and KSP
- Sequence (P52732 1-1056): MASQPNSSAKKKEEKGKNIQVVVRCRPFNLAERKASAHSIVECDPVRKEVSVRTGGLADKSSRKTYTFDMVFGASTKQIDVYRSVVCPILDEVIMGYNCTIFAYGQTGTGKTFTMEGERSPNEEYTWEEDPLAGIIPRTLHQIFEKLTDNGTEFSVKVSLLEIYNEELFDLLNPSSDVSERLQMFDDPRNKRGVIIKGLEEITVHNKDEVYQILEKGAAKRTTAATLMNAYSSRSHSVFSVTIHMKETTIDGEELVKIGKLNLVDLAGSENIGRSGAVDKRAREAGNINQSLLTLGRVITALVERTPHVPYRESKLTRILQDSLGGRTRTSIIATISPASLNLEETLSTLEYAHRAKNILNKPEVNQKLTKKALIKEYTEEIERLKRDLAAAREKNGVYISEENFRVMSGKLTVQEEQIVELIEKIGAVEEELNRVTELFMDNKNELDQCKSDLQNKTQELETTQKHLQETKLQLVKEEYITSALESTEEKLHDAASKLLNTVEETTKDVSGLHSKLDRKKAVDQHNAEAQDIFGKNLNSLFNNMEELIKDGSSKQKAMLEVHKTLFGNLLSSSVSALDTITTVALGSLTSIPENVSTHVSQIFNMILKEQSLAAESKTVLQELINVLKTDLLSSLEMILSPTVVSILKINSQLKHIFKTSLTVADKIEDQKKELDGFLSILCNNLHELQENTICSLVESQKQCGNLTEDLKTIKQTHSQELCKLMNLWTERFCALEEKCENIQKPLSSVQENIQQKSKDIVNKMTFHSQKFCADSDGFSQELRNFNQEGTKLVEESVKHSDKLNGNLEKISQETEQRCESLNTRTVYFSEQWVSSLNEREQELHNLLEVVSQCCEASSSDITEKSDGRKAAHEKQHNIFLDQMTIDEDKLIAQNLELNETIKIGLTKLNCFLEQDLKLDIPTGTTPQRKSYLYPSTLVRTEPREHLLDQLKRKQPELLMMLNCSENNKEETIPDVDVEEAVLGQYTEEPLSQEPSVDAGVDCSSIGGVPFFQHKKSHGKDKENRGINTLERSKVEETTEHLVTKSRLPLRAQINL
- Procedure Details: In vitro enzymatic ATPase assay (ADP-Glo), MT-stimulated activity
- Details: concentrations up to 250 μM, mean ± SD
Experimental Endpoint: pIC50
// field semantics: pIC50 = negative decimal log of concentration (mol/L)

**Q:** State measured pIC50 of the compound O=C(O)c1cc(Cl)c(Cl)cc1C(=O)N(Cc1ccccc1)Cc1ccccc1 with full-length, N-terminal, 6His-tagged KSP (Homo sapiens).
**A:** 4.54
